SYSTEM_UNDER_TEST: Bifunctional protein GlmU (Mycobacterium tuberculosis (strain ATCC 25618 / H37Rv)) (UniProt P9WMN3)
Sequence (P9WMN3 whole entry, looked up): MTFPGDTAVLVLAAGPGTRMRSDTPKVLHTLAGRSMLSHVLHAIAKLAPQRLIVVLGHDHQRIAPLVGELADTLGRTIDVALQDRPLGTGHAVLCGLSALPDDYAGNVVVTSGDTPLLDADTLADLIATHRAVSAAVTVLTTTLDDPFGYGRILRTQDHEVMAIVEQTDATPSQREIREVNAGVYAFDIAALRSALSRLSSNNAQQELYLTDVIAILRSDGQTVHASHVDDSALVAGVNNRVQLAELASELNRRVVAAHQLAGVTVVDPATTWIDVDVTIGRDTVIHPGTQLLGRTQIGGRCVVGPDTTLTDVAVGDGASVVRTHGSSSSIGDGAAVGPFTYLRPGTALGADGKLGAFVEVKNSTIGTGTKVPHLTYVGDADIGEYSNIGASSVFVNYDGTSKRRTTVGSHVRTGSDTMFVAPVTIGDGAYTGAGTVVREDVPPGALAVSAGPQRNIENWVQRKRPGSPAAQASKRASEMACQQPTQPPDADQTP
METHOD: inhibition of mycobacterial GlmU enzyme – biochemical, glucosamine-1-phosphate acetyltransferase (AID 1376);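 note: 0% = complete reaction with vehicle and 100% = reaction without substrate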
TEST_PARAMETERS: M. tuberculosis GlmU acetyltransferase enzyme assay; active compounds read high;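 tested at 30 µM in the primary screen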
Screen size: about 220,000 compounds; about 530 (0.24%) were called active. The list comes from a sample in which actives are over-represented; it also holds close analogues and randomly drawn compounds. Potency and affinity values are given separately.
Each record here notes measured inhibition.
The reply should contain only the number, in %.

Query: inhibition; subject: CCOc1ccc(N=Nc2c(=O)[nH]n3c(=O)cc(C)[nH]c23)cc1
17.1

Next compound: O=C1/C(=C/c2ccco2)SC(=S)N1C1CCS(=O)(=O)C1 (stereo not given)
5.66

Queued: O=C(NCC(=O)N(c1ccccc1)C(C(=O)NC1CCCCC1)c1cccnc1)c1cccs1 (stereo not given)
-3.93

Can you check Cc1ccc(N=Nc2c(=O)[nH]n3c(=O)cc(C)[nH]c23)cc1 next?
9.14

Consider next the compound Cc1cc(=O)n2[nH]c(=O)c(N=Nc3ccccc3)c2[nH]1 in the same way.
4.01

###

SYSTEM_UNDER_TEST: Bifunctional protein GlmU (Mycobacterium tuberculosis (strain ATCC 25618 / H37Rv)) (UniProt P9WMN3)
METHOD: inhibition of mycobacterial GlmU enzyme – biochemical, glucosamine-1-phosphate acetyltransferase (AID 1376);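 note: 0% = complete reaction with vehicle and 100% = reaction without substrate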
TEST_PARAMETERS: M. tuberculosis GlmU acetyltransferase enzyme assay; active compounds read high;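 tested at 30 µM in the primary screen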
Screen size: about 220,000 compounds; about 530 (0.24%) were called active. The entries come from a sample that favours actives as a whole. Entries with a potency or affinity are not part of this list.
MEASURED_ATTRIBUTE: inhibition (%)
Answer with a number only, understood to be in %.

Some compounds with known inhibition results, for comparison:
Entry under review: O=C(CS(=O)(=O)Cc1ccccc1)Nc1ccccc1Cl . Reported inhibition?
-1.63

Also Cc1cc(C)c(S(=O)(=O)/N=C2\C=CC(=O)C(Cl)=C2)c(C)c1 , if possible.
14.5

Repeat with NC(=O)c1ccccc1NC(=O)CS(=O)(=O)Cc1ccccc1
14.6

Check Cc1cc2nc(=O)c(/C=C3\C=Nc4ccccc43)c(N)n2o1 too.
-5.38

# repeat for CC(C)NC(=O)c1ccccc1NC(=O)CS(=O)(=O)Cc1ccccc1
-2.67

Consider the additional compound presented here.
Quick check: inhibition of N#CC1=C(N)N(c2ccccc2)C2=C(C(=O)CCC2)C1c1cccs1 (stereo unspecified) ?
2.47

###

SYSTEM_UNDER_TEST: Bifunctional protein GlmU (Mycobacterium tuberculosis (strain ATCC 25618 / H37Rv))
METHOD: inhibition of mycobacterial GlmU enzyme – biochemical, glucosamine-1-phosphate acetyltransferase (AID 1376);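 note: 0% = complete reaction with vehicle and 100% = reaction without substrate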
TEST_PARAMETERS: M. tuberculosis GlmU acetyltransferase enzyme assay; active compounds read high;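 tested at 30 µM in the primary screen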
Screen size: about 220,000 compounds; about 530 (0.24%) were called active. For the sample, actives were picked, then their nearest neighbours and some compounds at random. Entries with a potency or affinity are not part of this list.
MEASURED_ATTRIBUTE: inhibition (%)
Respond with the bare value in %.

Look over these answered cases.
Recorded inhibition of O=C(CN1CCN(Cc2ccccc2Cl)CC1)N/N=C/c1ccco1 , please.
2.34

And CCn1ncc(NC(=S)Nc2ccc3c(c2)OCO3)c1C(N)=O ?
-0.08

And Cc1c(C(=O)NCc2cccnc2)sc2ncn(CC(=O)N3CCCCC3C)c(=O)c12 (stereo unspecified) ?
-7.32

More entries:
Entry CCC1(C)Cc2c(C#N)c(N)n(-c3ccccc3)c(=S)c2CO1 (stereo unspecified) has what inhibition?
6.07

Also, CCC1(C)Cc2c(C#N)c(N)n(-c3ccccc3)c(=O)c2CO1 (stereo unspecified) please.
13.3

And the next one, C/C(=N\NC(=O)c1ccccc1)c1ccccc1Br ?
3.08

###

SYSTEM_UNDER_TEST: Bifunctional protein GlmU (Mycobacterium tuberculosis (strain ATCC 25618 / H37Rv)) (UniProt P9WMN3)
METHOD: inhibition of mycobacterial GlmU enzyme – biochemical, glucosamine-1-phosphate acetyltransferase (AID 1376);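 note: 0% = complete reaction with vehicle and 100% = reaction without substrate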
TEST_PARAMETERS: M. tuberculosis GlmU acetyltransferase enzyme assay; active compounds read high;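 tested at 30 µM in the primary screen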
In all, about 220,000 compounds went through this assay and about 530 (0.24%) were called active. The list comes from a sample in which actives are over-represented; it also holds close analogues and randomly drawn compounds. Results with a measured potency or affinity are listed apart.
Reported inhibition by item:
Kindly answer with a numeric value in %, unit omitted.

Examples with their reported inhibition follow.
Look at this molecule and give its reported inhibition. CN(Cc1ccncc1)C1CC(=O)N(c2ccc(F)cc2)C1=O (stereo not drawn)
5.02

Now give it for Cc1occc1C(=O)N/N=C/c1cnn(C)c1C too.
0.23

Same for O=C(/C=C/NNC(=O)c1cccc(Br)c1)c1cccc(Br)c1
12.9

Consider next the molecule Cc1ccc(-n2ncc3c(=O)n(-c4ccc(C)c(C)c4)c(C)nc32)cc1 in the same way.
48.2

Try the molecule CC1=C(C#N)c2nc(N)c(C#N)c(C)c2/C1=C\c1ccc(C)cc1
2.53

More entries:
Name the recorded inhibition for COCCNc1nc(SCc2ccccc2)nc2sc3c(c12)CCC3 .
-0.26

Next molecule: COc1ccc(NC(=O)N2CCCC2C(=O)NCc2ccc(C)cc2)cc1 (stereo not drawn)
1.15

Input Cc1ccc(N2C(=O)C(Cc3ccc(O)cc3)NC2=S)cc1C (stereo not drawn)
-4.47

Note, next up: CC1=C(C#N)c2nc(N)c(C#N)c(C)c2/C1=C\c1ccc(OCC(=O)O)c(Cl)c1
4.55

Query COCCCNc1nc(SCc2ccccc2)nc2sc3c(c12)CCC3 next
12.8

Field entry: O=C(CCc1nc2ccccc2c(=O)[nH]1)OCc1ccc(Cl)cc1Cl
-1.63

###

SYSTEM_UNDER_TEST: Bifunctional protein GlmU (Mycobacterium tuberculosis (strain ATCC 25618 / H37Rv)) (UniProt P9WMN3)
METHOD: inhibition of mycobacterial GlmU enzyme – biochemical, glucosamine-1-phosphate acetyltransferase (AID 1376);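 note: 0% = complete reaction with vehicle and 100% = reaction without substrate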
TEST_PARAMETERS: M. tuberculosis GlmU acetyltransferase enzyme assay;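 tested at 30 µM in the primary screen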
Among all 220,000 compounds or so, about 530 (0.24%) were called active. No stated cut-off is given here; in the data, active means inhibition above about 13%; inconclusive means no clear call, values can overlap the other calls; inactive means below that. The sample as a whole holds a higher share of actives than the screen did. Results with a measured potency or affinity are listed apart.
Answer with one of the outcomes active, inactive

Worked cases, answers included:
# outcome recorded in this test, key = CCCCOc1ccc(C(=O)N2CC(C)OC(C)C2)cc1 (stereo unspecified)
inactive

One more compound: O=C(COc1cccnc1[N+](=O)[O-])Nc1ccc2c(c1)OC(F)(F)O2
inactive

Cool, now O=C(NN1C(=O)/C(=C/C=C/c2ccco2)SC1=S)c1ccncc1
inactive

Further, for c1ccc2oc(NC3=NCN(C4CCCCC4)CN3)nc2c1 ?
inactive

Consider next the compound CCOC(=O)c1cnc2c(-c3ccc(Cl)cc3)c(C)nn2c1N in the same way.
inactive

Next up: Cc1cccc(/C(N)=N/OC(=O)CCc2ccccc2)c1
inactive

What do you have for Cc1ccc2c(c1)C1C=CCC1C(C(=O)O)N2 (stereo unspecified) ?
active

Follow-up item: O=C1CCN(Cc2ccccc2)S(=O)(=O)c2ccccc21
inactive

// query: O=S1(=O)c2ccccc2N=NN1Cc1cc(Cl)cc(Cl)c1
inactive

Okay, and CCn1c(Cc2ccccc2)nnc1SCc1cccc(C(=O)O)c1 ?
inactive

# next compound below
Recorded test call requested for CC(/C=C1\SC(=S)N(NS(=O)(=O)c2ccccc2)C1=O)=C\c1ccccc1
inactive

###

Examples of compounds with documented inhibition follow.
SYSTEM_UNDER_TEST: Bifunctional protein GlmU (Mycobacterium tuberculosis (strain ATCC 25618 / H37Rv))
METHOD: inhibition of mycobacterial GlmU enzyme – biochemical, glucosamine-1-phosphate acetyltransferase (AID 1376);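 note: 0% = complete reaction with vehicle and 100% = reaction without substrate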
TEST_PARAMETERS: M. tuberculosis GlmU acetyltransferase enzyme assay; active compounds read high;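 tested at 30 µM in the primary screen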
Screen size: about 220,000 compounds; about 530 (0.24%) were called active. This excerpt belongs to a sample that is enriched for actives. Potency and affinity values are given separately.
Provide the reading as a plain figure in %.

Check out these entries, answers already filled in.
API: value(readout=inhibition, system=Bifunctional protein GlmU (Mycobacterium tuberculosis (strain ATCC 25618 / H37Rv))) for record Cc1c(NC(=O)c2ccc3c(c2)C(=O)N(Cc2ccco2)C3=O)cccc1C(=O)O
-0.73

Proceed to O=C(O)CCCN1C(=O)c2ccc(C(=O)c3cccc([N+](=O)[O-])c3)cc2C1=O
2.64

What do you get for O=C(Nc1ccccc1)c1nnsc1S(=O)(=O)c1ccc(Cl)cc1 ?
6.59

Others:
Query the reported inhibition for Bifunctional protein GlmU (Mycobacterium tuberculosis (strain ATCC 25618 / H37Rv)); item: Cc1cc(C)nc(Sc2ccc(/C=C(\C#N)C(N)=O)o2)n1
3.14

Data provenance: PubChem BioAssay AID1376
